Catalogue of binders with associated CRF1R Emax %
experimental_system: corticotropin releasing factor 1 receptor
protocol_summary: cell-based or functional assay
Use % as the unit, but write only the number.

What value of measured CRF1R Emax % is listed for ZGPPISIDLPFQLLRKVIEIEKQEKEKQQAANNALLLDTI (C-terminal amide) [SEQ ID NO 350] ?
48

What value of measured CRF1R Emax % is listed for ZGPPISIDLPFQLLREVIEIEKQEKEKQQAANNALLLATI (C-terminal amide) [SEQ ID NO 359] ?
100

What value of measured CRF1R Emax % is listed for ZGPPISIDLPVALLRKMIEIEKQEKEKQQAANNRLLLDTI (not fully specified; C-terminal amide) [SEQ ID NO 305] ?
59.5
